The following molecules are shown together with reported TGI values.
# Test system: UO-31 renal
# test-name: NCI tumour cell line growth inhibition, 48 h

molecule	value-observed
CC1(C)C(CC(=O)O)CCCC1CC(=O)O (centres undefined)	> 100 µM
Nc1ccc(C2SCC(=O)N2NS(=O)(=O)c2cccc(C(=O)O)c2)cc1 (centres undefined)	> 100 µM
COC(=O)[C@H](Cc1ccccc1)NC(=O)N(CCNC(=O)OC(C)(C)C)c1ccccc1	> 100 µM
O=C1OCC2=C1C(c1cccc(Cl)c1)c1cc3c(cc1N2CCO)CCC3 (centres undefined)	14.2 µM
CC(C)(C)CI	> 10 µM
O=C(CCCn1ccnc1[N+](=O)[O-])NCCn1cnc([N+](=O)[O-])n1	> 100 µM

Q. I'd like to know its TGI. The molecule in question is `COc1c(B(O)O)cccc1-c1nc2c(F)cc3n[nH]c(C)c3c2c2c1CCCC2`
A. 3.07 µM

Q. Recorded TGI of CC1(C)N([O-])[N+](=O)C1(C)O (centres undefined) , please.
A. > 100 µM

Q. Any idea what its TGI is? The molecule is `Cc1[nH]nc(C(=O)N/N=C/c2ccccc2Cl)c1N=NN(C)C`
A. > 100 µM

Q. Tell me the measured TGI of [O-][N+]1=C2CCC/C(=N/O)C2(O)C2CCCCC21N1CCOCC1 (centres undefined) , please.
A. > 100 µM

Q. Any idea what TGI was measured for COc1cc(C2CC(c3cccc(Nc4ccnc5cc(Cl)ccc45)c3)=NN2c2ccccc2)cc(OC)c1OC (centres undefined) ?
A. > 100 µM

Q. Entry `C/C(CCN(C)C)=N\OC(=O)c1ccccc1` has what TGI?
A. > 100 µM

Q. I have this molecule here, `O=C(/C=C/c1cccc(Br)c1)N1CCN(CCOC(c2ccccc2)c2ccccc2)CC1` , and I need its recorded TGI.
A. 65.8 µM

Q. Entry `CON[N+]([O-])=NC(C)C` : reported TGI = ?
A. > 100 µM

Q. Endpoint output: TGI of NC(CSCSCC(N)C(=O)O)C(=O)O (centres undefined) . Value?
A. > 225 µM

Q. Any idea what its TGI is? The molecule is `N#CCCN(c1ccc(C=O)cc1)S(=O)(=O)c1ccccc1`
A. > 100 µM

Q. Look up TGI: `Nc1cc(N)c2nc(NCCc3ccc(Cl)c(Cl)c3)cnc2c1`
A. 20.3 µM

Q. Please give the measured TGI for this molecule: `Cn1c(=O)n(C2(C)CSC2)c2ccccc21`
A. > 100 µM

Q. GET /values?readout=TGI&item= `Cc1ccc(-c2cc(=O)c(=O)[nH][nH]2)cc1`
A. > 100 µM

Q. Recorded TGI of `CCc1ncc(CO)n1Cc1cccc2ccccc12` , please.
A. > 100 µM

Q. Given CC[As](CC)SCC1OC(OC(C)=O)C(OC(C)=O)C(OC(C)=O)C1OC(C)=O (centres undefined) , state its recorded TGI.
A. 29.8 µM

Q. Dear colleague, I am looking for the recorded TGI of the following molecule: `C=CCOCn1cnc2c(=O)[nH]c(N)nc21`
A. > 100 µM

Q. May I ask what TGI has been recorded for `O=C(/C=C/C=C/c1ccc2c(c1)OCO2)N/N=C\c1ccc(O)cc1O` ?
A. 8.75 µM

Q. What does the record list as TGI for COc1nc(NC2OC(CO)C(O)C(O)C2O)c(N)c(=O)[nH]1 (centres undefined) ?
A. > 100 µM
